B1: FANCE (parent)
chain: AQVLMLGQILELPWKEETFLVLQS

- Variants of: B1
- Test Details: protein stability index of a GFP-peptide fusion (GPS, HEK-293T) (PSI 1-6); higher = more stable;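 also: lentivirally expressed fusions sorted by FACS into six bins by GFP to DsRed ratio, PSI derived from sequencing read proportions per bin multiplied by bin number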
- Measurement Setup: c terminus: a fixed tail appended
Decision: protein stability index >= 3 yields Criterion met, all other cases yield Criterion not met.

Check out these entries, answers already filled in.
# Sequence Change, Class Name
rows = [
    ("A1M", "Criterion met"),
    ("I9G", "Criterion not met"),
    ("E11Y", "Criterion met"),
    ("Q23F", "Criterion not met"),
    ("V3N", "Criterion not met"),
]

Identify whether the reported protein stability index of the following variant is 3 or greater: S24T Criterion not met

Please check the record L20C and state if its protein stability index is at or above 3. Criterion not met

Could you please find out whether P13I has protein stability index that meets 3 or exceeds it? Criterion not met

Please tell me: is the variant G7N at or over 3 in terms of protein stability index? Criterion not met

API: above_or_equal(metric=protein stability index, cutoff=3) for item F19K Criterion not met

Answer whether protein stability index of W14T is greater than or equal to 3. Criterion not met
